Test system: C. albicans NCTC 10231
Where a SMILES comes first, the peptide text is derived from it.
readout-name: MIC (µM)
One number for each entry, in µM.

## Task Annotate the molecule CC[C@H](C)[C@H](NC(=O)[C@H](C)NC(=O)[C@H](CCCCN)NC(=O)CNC(=O)[C@@H](NC(=O)[C@H](CC(C)C)NC(=O)[C@H](C)NC(=O)[C@H](CC(C)C)NC(=O)[C@H](C)NC(=O)[C@H](CC(C)C)NC(=O)[C@@H](N)Cc1ccccc1)[C@@H](C)CC)C(=O)N[C@@H](C)C(=O)N[C@@H](CCCCN)C(=O)N[C@@H](CC(C)C)C(=O)N[C@@H](CCCCN)C(N)=O [QUB-1570] (H-FLALALIGKAIAKLK-NH2) with its measured MIC.
## Result 8
